- Test system: 786-O
- methodSummary: GI50, drug alone; higher = less potent
- studyConditions: treatment: drug alone; 5 days

molecule	relationQualifier	GI50, drug alone (µM)
Cc1ccc([N+](=O)[O-])cc1S(=O)(=O)N(C)/N=C/c1cnc2ccc(Br)cn12.Cl	=	0.0402
O=C(Nc1cc(C(F)(F)F)cc(C(F)(F)F)c1)c1cc(Cl)ccc1O	=	0.412
CC(C)NC[C@@H](C(=O)N1CCN(c2ncnc3c2[C@H](C)C[C@H]3O)CC1)c1ccc(Cl)cc1	=	0.251
COc1ccc(-c2ccc3ncc4c(c3c2)n(-c2ccc(N3CCNCC3)c(C(F)(F)F)c2)c(=O)n4C)cn1.O=C(O)/C=C\C(=O)O	=	0.0129
CS(=O)c1ccc(-c2nc(-c3ccc(F)cc3)c(-c3ccncc3)[nH]2)cc1 (centres undefined)	>	10
C=CC(=O)N1CCC[C@@H](n2nc(-c3ccc(Oc4ccccc4)cc3)c3c(N)ncnc32)C1	>	10
COC1=CC(c2cc3ccccc3[nH]2)=N/C1=C\c1[nH]c(C)cc1C.CS(=O)(=O)O [Obatoclax mesylate (GX15-070)]	=	0.00753
COCCOc1ccc2c(c1)ncn2-c1ccc2cccc(N3CCC(N)CC3)c2n1	=	0.631
CN1CCN(c2ccc3nc(-c4c(N)c5c(F)cccc5[nH]c4=O)[nH]c3c2)CC1	=	6.95
C=CC(=O)Nc1cc2c(Nc3ccc(F)c(Cl)c3)ncnc2cc1OCCCN1CCOCC1	>	10
NC1(Cc2ccc(Cl)cc2)CCN(c2ncnc3[nH]ccc23)CC1	=	0.631
C=CC(=O)Nc1cccc(Oc2nc(Nc3ccc(N4CCN(C)CC4)cc3OC)ncc2Cl)c1	>	10
O=C1NC(=O)C(=Cc2ccc(-c3ccc(F)cc3)o2)S1 (stereo in doubt)	>	10
COc1cc(CCc2cc(NC(=O)c3ccc(N4C[C@@H](C)N[C@@H](C)C4)cc3)n[nH]2)cc(OC)c1	=	7.22
COc1ccc2cc(-c3[nH]c(-c4ccc(S(C)=O)cc4)nc3-c3ccncc3)ccc2c1 (centres undefined)	>	10
O=C(NCCCNc1nc(Nc2cccc(NC(=O)N3CCCC3)c2)ncc1I)c1cccs1	=	0.0999
COc1cc2c(Nc3ccc(Br)cc3F)ncnc2cc1OCC1CCN(C)CC1 [Vandetanib (Zactima)]	>	10
CCN1CCN(Cc2ccc(-c3cc4c(N[C@H](C)c5ccccc5)ncnc4[nH]3)cc2)CC1	=	8.51
CC[C@H](Nc1ncnc2[nH]cnc12)c1nc2cccc(F)c2c(=O)n1-c1ccccc1	>	10
COc1ccc(-c2ccc3c(N4CCOC[C@@H]4C)nc(N4CCOC[C@@H]4C)nc3n2)cc1CO	=	0.00959
O=C(NOC[C@H](O)CO)c1ccc(F)c(F)c1Nc1ccc(I)cc1F	=	0.221
COC(=O)c1ccc2c(c1)NC(=O)/C2=C(\Nc1ccc(N(C)C(=O)CN2CCN(C)CC2)cc1)c1ccccc1	>	10
Cc1cc(C(C)Nc2ccccc2)c2nc(N3CCOCC3)cc(=O)n2c1 (centres undefined)	>	10
CN1CCN(c2cccc(Nc3nc4c(-c5ccc(S(C)(=O)=O)cc5)cccn4n3)c2)CC1	>	10
O=C(NCc1ccccc1)c1csc(Nc2ccncn2)n1	>	10
COc1ccc(-c2cc3c(C)nc(N)nc3n([C@H]3CC[C@H](OCCO)CC3)c2=O)cn1	=	0.163
C[C@H](NC(=O)/C(C#N)=C/c1cccc(Br)n1)c1ccccc1	=	4.47
N#CC[C@H](C1CCCC1)n1cc(-c2ncnc3[nH]ccc23)cn1	=	8.76
CS(=O)(=O)CCNCc1ccc(-c2ccc3ncnc(Nc4ccc(OCc5cccc(F)c5)c(Cl)c4)c3c2)o1.Cc1ccc(S(=O)(=O)O)cc1.Cc1ccc(S(=O)(=O)O)cc1 [Lapatinib Ditosylate (Tykerb)]	>	10
